From: paper PMC8510269

- TEST_SUMMARY: Partition coefficient octanol/water estimated from EPR amplitudes
- Type: physicochemical
- EXPERIMENTAL_CONTEXT: ratio of concentrations in octanol to water; distilled water
MEASURE_NAME: Kp (partition coefficient octanol/water)

CCC1(CC)CC(CN)C(CC)(CC)N1[O] (stereo not shown) [Nitroxide 22] : 5.5

1. CCC1(CC)CC(CN2CCCCC2)C(CC)(CC)N1[O] (stereo not shown) [Nitroxide 30]
2. CCC1(CC)CC(C(=O)O)C(CC)(CC)N1[O] (stereo not shown) [Nitroxide 1]
3. CCC1(CC)CC(CNC(=O)CN2CCCC2)C(CC)(CC)N1[O] (stereo not shown) [Nitroxide 29]
Provide the items ranked by increasing Kp (partition coefficient octanol/water). Response format: the labels, sorted as the prompt asks.
1, 3, 2
(1: 30, 3: 70, 2: 270)
